# study-system: Human Cbl-b (residues 40-426) (Homo sapiens (Human), UniProt Q13191)
# Sequence (Q13191 40-426): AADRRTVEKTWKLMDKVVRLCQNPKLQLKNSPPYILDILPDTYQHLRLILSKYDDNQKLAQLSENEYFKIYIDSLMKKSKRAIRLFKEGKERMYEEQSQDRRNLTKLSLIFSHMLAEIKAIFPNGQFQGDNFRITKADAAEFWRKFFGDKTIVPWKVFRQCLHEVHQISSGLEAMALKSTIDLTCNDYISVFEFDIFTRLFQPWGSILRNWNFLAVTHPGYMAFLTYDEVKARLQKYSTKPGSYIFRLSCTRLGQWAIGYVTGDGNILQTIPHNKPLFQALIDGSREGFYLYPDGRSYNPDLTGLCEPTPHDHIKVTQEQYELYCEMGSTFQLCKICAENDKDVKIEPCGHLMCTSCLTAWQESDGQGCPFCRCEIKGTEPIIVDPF
# assay-summary: Cbl-b SPR assay
# Type: binding
# stated-conditions: C-cbl SPR Kd vs Cbl-b SPR Kd
value-type: Fold of selectivity (×)

Cn1cnnc1C(c1cccc(N2Cc3c(cc(CNC4(C)CCC4)cc3C(F)(F)F)C2=O)c1)C1CC(F)(F)C1 (racemic): 14
COC[C@@H]1CC1(c1cccc(N2Cc3c(cc(CNC4(C)CCC4)cc3C(F)(F)F)C2=O)c1)c1nncn1C (single isomer, unassigned): 5.3
Cn1cnnc1C1(c2cccc(N3Cc4c(cc(CNC5(C)CCC5)cc4C(F)(F)F)C3=O)c2)CSC1.O=CO: 5.7

P = Cn1cnnc1C1(c2cccc(N3Cc4c(cc(CNC5(C)CCC5)cc4C(F)(F)F)C3=O)c2)CC2(C1)OCCO2
Q = Cn1cnnc1C1(c2cc(NCCC#N)nc(N3Cc4c(cc(CNC5(C)CCC5)cc4C(F)(F)F)C3=O)c2)CC2(COC2)C1
R = CO[C@H]1C[C@@](c2cccc(N3Cc4c(cccc4C(F)(F)F)C3=O)c2)(c2nncn2C)C1
S = Cn1cnnc1[C@@H](c1cccc(N2Cc3c(Cl)cc(CNC4(C)CCC4)cc3C2=O)c1)C1COC1
Please list the entries, largest Fold of selectivity first. Labels, ranked as asked.
Q, S, P, R
(Q: 15 ×, S: 5.9 ×, P: 4.0 ×, R: 2.2 ×)

====

# study-system: Cbl-b (Homo sapiens (Human), UniProt Q13191)
# Sequence (Q13191 40-426): as the sequence (Q13191 40-426) above
# assay-summary: Cbl-b LCK Ub TR-FRET assay (Cbl-b Lck HTRF)
# Type: biochemical
# stated-conditions: ratio C-cbl Lck HTRF IC50 / Cbl-b Lck HTRF IC50
value-type: fold-selectivity (Cbl-b over C-cbl) (x)

1 = C[C@H](NC1(C)CCC1)c1cc(Cl)c2c(c1)C(=O)N(c1cccc([C@]3(c4nncn4C)C[C@H](F)C3)c1)C2 (single isomer, unassigned)
2 = Cn1cnnc1C1(c2cc(OC3CCCC3)nc(N3Cc4c(cc(CNC5(C)CCC5)cc4C(F)(F)F)C3=O)c2)CC2(COC2)C1
Between the entries labeled 1 and 2 , whose measured fold-selectivity (Cbl-b over C-cbl) is lower? # reply format: chosen label
1
(1: 3.5 x, 2: 11 x)

====

# study-system: UniProtKB Q13191
# assay-summary: Cbl-b LCK Ub TR-FRET assay (Cbl-b Lck HTRF)
# Type: biochemical
# stated-conditions: Cbl-b LCK Ub TR-FRET, Example 121
value-type: IC50 (nM)

CO[C@H]1C[C@](c2cccc(N3Cc4c(cc(CNCC5(C)CC5(F)F)cc4C(F)(F)F)C3=O)c2)(c2nncn2C)C1 (stereo partly drawn) [Compound 501]: 11

A = C[C@H](NC1(C)CCC1)c1cc2c(c(C(F)F)c1)CN(c1cccc([C@H](c3nncn3C)C3COC3)c1)C2=O (single isomer, unassigned) [Compound 413]
B = CO[C@H]1C[C@](c2cccc(N3Cc4c(cc(CN5CC(C)(O)C5)cc4C(F)(F)F)C3=O)c2)(c2nncn2C)C1 [Compound 478]
Between the entries labeled A and B , whose measured IC50 is lower? # reply format: chosen label
A
(A: 4.5 nM, B: 130 nM)

====

# study-system: Human Cbl-b (residues 40-426) (Homo sapiens (Human), UniProt Q13191)
# assay-summary: Cbl-b SPR assay
# Format: binding
# stated-conditions: C-cbl SPR Kd vs Cbl-b SPR Kd
value-type: Fold of selectivity (×)

These solved cases illustrate the format of a correct answer.
CC(C)[C@H]1CN(C)CCN1Cc1cc2c(c(C(F)F)c1)CN(c1cccc(C3(c4nncn4C)CC4(COC4)C3)c1)C2=O.O=CO.O=CO: 5.1
CO[C@H]1C[C@@H]([C@@H](c2cccc(N3Cc4c(cc(CN5CCN(C)C[C@@H]5C(C)C)cc4C(F)(F)F)C3=O)c2)c2nncn2C)C1 (stereo in doubt) [Compound 13]: 4.1
CO[C@H]1C[C@](c2cc(NCCC#N)cc(N3Cc4c(cc(CNC5(C)CCC5)cc4C(F)(F)F)C3=O)c2)(c2nncn2C)C1: 11
Cn1cnnc1[C@@H](c1cccc(N2Cc3c(cc(CNC4(C)CCC4)cc3C(F)(F)F)C2=O)c1)C1CC(OC(F)(F)F)C1 (single isomer, unassigned): 4.5
Cn1cnnc1[C@@H](c1cccc(N2Cc3c(cc(CNC4(C)CCC4)cc3C(F)(F)F)C2=O)c1)[C@H]1C[C@@H](C)C1 (single isomer, unassigned): 6.7
Cn1cnnc1[C@@H](c1cccc(N2Cc3c(cc(CNC4(C)CCC4)cc3C(F)(F)F)C2=O)c1)[C@H]1C[C@H](C#N)C1 (single isomer, unassigned): 4.6
Cn1cnnc1C1(c2cccc(N3Cc4c(cc(CNC5(C)CCC5)cc4C(F)(F)F)C3=O)c2)CCCCC1: 5.9
Cn1cnnc1[C@]1(c2cccc(N3Cc4c(cc(CNC5(C)CCC5)cc4C(F)(F)F)C3=O)c2)C[C@H](OCF)C1: 9
Cn1cnnc1[C@]1(c2cccc(N3Cc4c(cc(CNC5(C)CCC5)cc4C(F)(F)F)C3=O)c2)C[C@H](CF)C1: 4.7
Cn1cnnc1C1(c2cccc(N3Cc4c(cc(CNC5(C)CCC5)cc4C(F)(F)F)C3=O)c2)CS(=O)(=O)C1: 4.8

a = CO[C@H]1C[C@@](c2cc(NCCC#N)cc(N3Cc4c(cc(CNC5(C)CCC5)cc4C(F)(F)F)C3=O)c2)(c2nncn2C)C1
b = CO[C@H]1C[C@](c2cccc(N3Cc4c(cc(CNCC5(C)CC5(F)F)cc4C(F)(F)F)C3=O)c2)(c2nncn2C)C1 (stereo partly drawn)
Between the entries labeled a and b , whose measured Fold of selectivity is lower? # reply format: chosen label
a
(a: 10 ×, b: 16 ×)

====

# study-system: UniProt:P22681
# Sequence (P22681 47-435): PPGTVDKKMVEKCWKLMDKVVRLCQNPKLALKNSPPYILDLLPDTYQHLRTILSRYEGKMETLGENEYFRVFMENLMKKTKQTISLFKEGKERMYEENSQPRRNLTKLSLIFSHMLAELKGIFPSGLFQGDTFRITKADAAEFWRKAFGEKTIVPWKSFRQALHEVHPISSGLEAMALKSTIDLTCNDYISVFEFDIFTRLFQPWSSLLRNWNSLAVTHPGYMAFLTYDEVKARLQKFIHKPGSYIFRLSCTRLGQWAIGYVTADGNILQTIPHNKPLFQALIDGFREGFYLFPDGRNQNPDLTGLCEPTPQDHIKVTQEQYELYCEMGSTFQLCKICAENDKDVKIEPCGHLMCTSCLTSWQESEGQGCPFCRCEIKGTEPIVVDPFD
value-type: IC50 (nM)

Cn1cnnc1[C@H](OC1CCC1)c1cccc(N2Cc3c(cc(CNC4(C)CCC4)cc3C(F)(F)F)C2=O)c1: 2300
Cn1cnnc1[C@]1(c2cccc(N3Cc4c(cc(CNC5(C)CCC5)cc4C(F)(F)F)C3=O)c2)C[C@H](CF)C1: 11
Cn1cnnc1C1(c2cccc(N3Cc4c(cc(CNC5(C)CCC5)cc4C(F)(F)F)C3=O)c2)CC2(CN(CC(F)(F)F)C2)C1: 16000
CC[C@](F)(c1cccc(N2Cc3c(cc(CNC4(C)CCC4)cc3C(F)(F)F)C2=O)c1)c1nncn1C (single isomer, unassigned): 460

a = COc1cc(N2Cc3c(cc(CNC4(C)CCC4)cc3C(F)(F)F)C2=O)cc([C@]2(c3nncn3C)C[C@@H](OC)C2)c1
b = Cn1cnnc1[C@@H](c1cccc(N2Cc3c(cc(CNC4(C)CCC4)cc3C(F)(F)F)C2=O)c1)C1CC1 (single isomer, unassigned)
Between the entries labeled a and b , whose measured IC50 is lower? # reply format: chosen label
b

====

Assay read-out Kd; system under study: Human Cbl-b (residues 40-426) (Homo sapiens (Human), UniProt Q13191).
value-type: Kd (nM)

Cn1cnnc1C1(c2cccc(N3Cc4c(cc(CNC5(C)CCC5)cc4C(F)(F)F)C3=O)c2)CC(OC(F)(F)F)C1 (single isomer, unassigned): 1.2

P = Cn1cnnc1[C@@](O)(c1cccc(N2Cc3c(cc(CNC4(C)CCC4)cc3C(F)(F)F)C2=O)c1)C(F)(F)F (single isomer, unassigned)
Q = Cn1cnnc1[C@]1(c2cccc(N3Cc4c(cc(CNC5(C)CCC5)cc4C(F)(F)F)C3=O)c2)C[C@@H](OCC#N)C1
Between the entries labeled P and Q , whose measured Kd is lower? # reply format: chosen label
Q

====

# study-system: Cbl-b (Homo sapiens (Human), UniProt Q13191)
# assay-summary: Cbl-b LCK Ub TR-FRET assay (Cbl-b Lck HTRF)
# Type: biochemical
# stated-conditions: ratio C-cbl Lck HTRF IC50 / Cbl-b Lck HTRF IC50
value-type: fold-selectivity (Cbl-b over C-cbl) (x)

These solved cases illustrate the format of a correct answer.
Cn1cnnc1[C@@H](c1cc(F)cc(N2Cc3c(cc(CNC4(C)CCC4)cc3C(F)(F)F)C2=O)c1)C1COC1 (single isomer, unassigned): 2.9
Cn1cnnc1[C@@H](c1cccc(N2Cc3c(cc(CNC4(C)CCC4)cc3C(F)(F)F)C2=O)c1)C1CC(OC(F)(F)F)C1 (single isomer, unassigned): 1.1
Cn1cnnc1[C@H](c1cccc(N2Cc3c(cc(CNC4(C)CCC4)cc3C(F)(F)F)C2=O)c1)C1CCC1 (single isomer, unassigned): 1.0
CC(=O)C1CC([C@H](c2cccc(N3Cc4c(cc(CNC5(C)CCC5)cc4C(F)(F)F)C3=O)c2)c2nncn2C)C1 (single isomer, unassigned) [Compound 382]: 3.0
Cn1cnnc1[C@H](c1cccc(N2Cc3c(cc(CNC4(C)CCC4)cc3C(F)(F)F)C2=O)c1)C1CC(OCC(F)F)C1 (single isomer, unassigned) [Compound 263]: 1.8
Cn1cnnc1[C@@H](c1cccc(N2Cc3c(cc(CNC4(C)CCC4)cc3C(F)(F)F)C2=O)c1)[C@H]1C[C@@H](C)C1 (single isomer, unassigned): 1.6

P = Cn1cnnc1[C@@H](c1cccc(N2Cc3c(cc(CNC4(C)CCC4)cc3C(F)(F)F)C2=O)c1)C1CCS(=O)(=O)CC1
Q = CC(=O)[C@H]1C[C@](c2cccc(N3Cc4c(cc(CNC5(C)CCC5)cc4C(F)(F)F)C3=O)c2)(c2nncn2C)C1
R = Cn1cnnc1[C@]1(c2cccc(N3Cc4c(cc(CNC5(C)CCC5)cc4C(F)(F)F)C3=O)c2)C[C@@H]([S@@+](C)[O-])C1 (single isomer, unassigned)
Provide the items ranked by increasing fold-selectivity (Cbl-b over C-cbl). Labels, ranked as asked.
R, P, Q
(R: 1.0 x, P: 1.5 x, Q: 3 x)
